- study-system: T1, recombinant human activated Factor VII (FVIIa) (human, UniProt P08709 61-212; P08709 213-466, ten glutamate residues of the Gla domain may be gamma-carboxylated)
- T1 construct: chains tethered by a disulfide bond; also called Factor VIIa; rFVIIa
- T1 sequence 1: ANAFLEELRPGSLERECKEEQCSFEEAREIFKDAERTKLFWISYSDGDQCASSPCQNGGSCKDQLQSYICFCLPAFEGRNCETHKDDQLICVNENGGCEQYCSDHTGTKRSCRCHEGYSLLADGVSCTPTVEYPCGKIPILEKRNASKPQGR
- T1 sequence 2: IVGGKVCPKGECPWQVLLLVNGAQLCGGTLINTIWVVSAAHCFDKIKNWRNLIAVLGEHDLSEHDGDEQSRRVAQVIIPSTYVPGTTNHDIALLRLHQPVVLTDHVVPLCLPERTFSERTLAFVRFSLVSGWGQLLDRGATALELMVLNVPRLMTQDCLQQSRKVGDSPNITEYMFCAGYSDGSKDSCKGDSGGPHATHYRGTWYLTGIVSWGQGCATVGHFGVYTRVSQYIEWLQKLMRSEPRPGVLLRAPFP
- method: BLI (Fortebio)
Reported Kd values follow for various binders
Don't forget the unit after the value.

// solved cases for Kd follow
* VH SEQ ID NO 586 / VL SEQ ID NO 478 (antibody, IgG4, V domains shown, humanized 11F2; IgG4 S228P/kappa) VH: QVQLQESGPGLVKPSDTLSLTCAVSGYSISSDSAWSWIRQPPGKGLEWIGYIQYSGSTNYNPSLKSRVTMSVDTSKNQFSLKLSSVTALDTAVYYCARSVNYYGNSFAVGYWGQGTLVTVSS VL: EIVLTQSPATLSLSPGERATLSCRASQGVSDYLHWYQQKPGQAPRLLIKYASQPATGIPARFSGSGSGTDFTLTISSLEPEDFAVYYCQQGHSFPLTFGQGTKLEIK | 27 nM
* VH SEQ ID NO 626 / VL SEQ ID NO 414 (antibody, IgG4, V domains shown, humanized 11F2; IgG4 S228P/kappa) VH: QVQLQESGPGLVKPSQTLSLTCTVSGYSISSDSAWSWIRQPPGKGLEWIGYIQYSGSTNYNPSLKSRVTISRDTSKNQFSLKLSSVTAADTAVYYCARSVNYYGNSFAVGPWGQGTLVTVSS VL: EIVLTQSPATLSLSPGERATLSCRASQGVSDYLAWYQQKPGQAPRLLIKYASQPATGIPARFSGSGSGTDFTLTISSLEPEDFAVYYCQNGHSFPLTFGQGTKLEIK | 18 nM

Q) Annotate the binder VH SEQ ID NO 618 / VL SEQ ID NO 454 (antibody, IgG4, V domains shown, humanized 11F2; IgG4 S228P/kappa) VH: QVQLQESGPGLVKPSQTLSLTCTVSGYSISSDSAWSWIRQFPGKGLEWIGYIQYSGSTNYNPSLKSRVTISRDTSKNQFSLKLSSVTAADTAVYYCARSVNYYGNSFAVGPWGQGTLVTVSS VL: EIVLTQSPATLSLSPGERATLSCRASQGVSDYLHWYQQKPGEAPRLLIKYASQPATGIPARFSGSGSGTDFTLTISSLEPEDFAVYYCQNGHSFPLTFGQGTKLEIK with its measured Kd.
A) 1.3 nM

Q) Annotate the binder VH SEQ ID NO 530 / VL SEQ ID NO 342 (antibody, IgG4, V domains shown, humanized 11F2; IgG4 S228P/kappa) VH: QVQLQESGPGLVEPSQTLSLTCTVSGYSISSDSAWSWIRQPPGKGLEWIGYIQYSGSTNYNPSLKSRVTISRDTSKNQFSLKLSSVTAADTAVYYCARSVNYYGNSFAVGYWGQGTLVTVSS VL: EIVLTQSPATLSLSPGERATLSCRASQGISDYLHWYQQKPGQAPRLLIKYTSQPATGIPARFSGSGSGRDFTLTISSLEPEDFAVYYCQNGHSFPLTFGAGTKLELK with its measured Kd.
A) 1.2 nM

Q) Annotate the binder VH SEQ ID NO 570 / VL SEQ ID NO 382 (antibody, IgG4, V domains shown, humanized 11F2; IgG4 S228P/kappa) VH: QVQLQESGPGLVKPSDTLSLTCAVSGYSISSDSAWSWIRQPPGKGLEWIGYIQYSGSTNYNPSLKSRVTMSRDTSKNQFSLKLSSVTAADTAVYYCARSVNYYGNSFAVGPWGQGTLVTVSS VL: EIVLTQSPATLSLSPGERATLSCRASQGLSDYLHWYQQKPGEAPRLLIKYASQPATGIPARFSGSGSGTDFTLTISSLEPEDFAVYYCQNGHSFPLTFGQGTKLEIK with its measured Kd.
A) 1.3 nM

Q) Annotate the binder VH SEQ ID NO 522 / VL SEQ ID NO 398 (antibody, IgG4, V domains shown, humanized 11F2; IgG4 S228P/kappa) VH: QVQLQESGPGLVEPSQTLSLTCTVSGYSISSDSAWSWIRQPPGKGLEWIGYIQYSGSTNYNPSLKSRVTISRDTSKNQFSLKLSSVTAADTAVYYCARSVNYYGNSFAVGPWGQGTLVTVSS VL: EIVLTQSPATLSLSPGERATLSCRASQGVSDYLAWYQQKPGEAPRLLIKYTSQPATGIPARFSGSGSGTDFTLTISSLEPEDFAVYYCQNGHSFPLTFGQGTKLEIK with its measured Kd.
A) 320 nM

Q) Annotate the binder VH SEQ ID NO 586 / VL SEQ ID NO 414 (antibody, IgG4, V domains shown, humanized 11F2; IgG4 S228P/kappa) VH: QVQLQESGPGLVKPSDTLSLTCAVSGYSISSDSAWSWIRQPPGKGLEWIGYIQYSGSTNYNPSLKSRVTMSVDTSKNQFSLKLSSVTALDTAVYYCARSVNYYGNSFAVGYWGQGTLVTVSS VL: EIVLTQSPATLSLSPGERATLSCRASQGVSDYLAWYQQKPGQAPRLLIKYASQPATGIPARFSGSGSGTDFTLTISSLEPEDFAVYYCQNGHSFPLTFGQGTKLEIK with its measured Kd.
A) 25 nM

Q) Annotate the binder VH SEQ ID NO 546 / VL SEQ ID NO 430 (antibody, IgG4, V domains shown, humanized 11F2; IgG4 S228P/kappa) VH: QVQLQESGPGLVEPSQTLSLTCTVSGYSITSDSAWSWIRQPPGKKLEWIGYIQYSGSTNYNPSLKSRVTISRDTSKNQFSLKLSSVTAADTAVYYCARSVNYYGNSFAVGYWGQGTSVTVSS VL: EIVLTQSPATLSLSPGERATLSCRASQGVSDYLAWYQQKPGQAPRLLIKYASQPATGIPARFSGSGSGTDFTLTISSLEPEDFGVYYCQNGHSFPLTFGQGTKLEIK with its measured Kd.
A) 8.1 nM

Q) Annotate the binder VH SEQ ID NO 586 / VL SEQ ID NO 454 (antibody, IgG4, V domains shown, humanized 11F2; IgG4 S228P/kappa) VH: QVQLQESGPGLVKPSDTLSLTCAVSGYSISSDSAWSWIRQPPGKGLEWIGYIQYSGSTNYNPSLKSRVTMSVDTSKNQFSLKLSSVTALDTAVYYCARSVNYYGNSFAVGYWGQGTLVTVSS VL: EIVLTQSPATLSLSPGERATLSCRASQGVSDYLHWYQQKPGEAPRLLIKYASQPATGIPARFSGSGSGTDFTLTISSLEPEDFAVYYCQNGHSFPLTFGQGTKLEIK with its measured Kd.
A) 16 nM

Q) Annotate the binder VH SEQ ID NO 514 / VL SEQ ID NO 350 (antibody, IgG4, V domains shown, humanized 11F2; IgG4 S228P/kappa) VH: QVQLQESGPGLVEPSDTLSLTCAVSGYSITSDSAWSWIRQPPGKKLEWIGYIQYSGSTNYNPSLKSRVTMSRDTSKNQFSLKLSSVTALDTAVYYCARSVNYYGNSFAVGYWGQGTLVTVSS VL: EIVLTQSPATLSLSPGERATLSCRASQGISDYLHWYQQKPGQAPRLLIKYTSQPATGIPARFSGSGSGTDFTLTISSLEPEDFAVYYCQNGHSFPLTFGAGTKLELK with its measured Kd.
A) 0.94 nM
